Record form. Attribute: pIC50. Fill in for each entry.
TARGET_ENTITY: catalytic domain of human Bub1 (amino acids 704-1085) (Homo sapiens (Human))
ASSAY_EXPLANATION: Bub1 kinase assay (TR-FRET)
REPORTED_CONDITIONS: 10 μM ATP, 1 μM peptide substrate, recombinant catalytic domain of human Bub1, read-out: Bub1 kinase assay median IC50
The quantity pIC50 is defined as the negative base-10 logarithm of the molar concentration.

Identify measured pIC50 associated with O=C1NCCc2[nH]c(-c3ccncc3)c(Nc3ccccc3)c21
8.10

Identify measured pIC50 associated with CCn1c2c(c(Nc3ccccc3)c1-c1ccnc(C)c1)C(=O)NCC2
6.01

Identify measured pIC50 associated with O=C1NCCc2[nH]c(-c3ccncc3OCC3CC3)c(Nc3cccc(F)c3)c21
7.62

Identify measured pIC50 associated with CCn1c2c(c(Nc3ccccc3)c1-c1ccnc(NC(C)=O)c1)C(=O)NCC2
7.10

Identify measured pIC50 associated with COc1cnccc1-c1[nH]c2c(c1Nc1ccccc1)C(=O)N(C)CC2
7.57

Identify measured pIC50 associated with COCCOc1cnccc1-c1[nH]c2c(c1Nc1ccc(F)c(F)c1)C(=O)NCC2
7.55

Identify measured pIC50 associated with O=C1NCCc2[nH]c(-c3ccncc3OCC3CC3)c(Nc3ccc(F)cc3)c21
7.25

Identify measured pIC50 associated with CCn1c2c(c(Nc3ccccc3)c1-c1ccncc1)C(=O)NCC2
7.45

Identify measured pIC50 associated with Cc1cnccc1-c1[nH]c2c(c1Nc1ccccc1)C(=O)NCC2
6.61

Identify measured pIC50 associated with O=c1[nH]ccc2[nH]c(-c3ccncc3F)c(Nc3ccccc3)c12
7.72

Identify measured pIC50 associated with CN1CCc2[nH]c(-c3ccnc(NC(=O)C4CC4)c3)c(Nc3ccccc3)c2C1=O
7.82

Identify measured pIC50 associated with CN1CCc2[nH]c(-c3ccncc3OCC(F)F)c(Nc3ccccc3)c2C1=O
7.15

Identify measured pIC50 associated with Nc1cc(-c2[nH]c3c(c2Nc2ccccc2)C(=O)NCC3)ccn1
6.86

Identify measured pIC50 associated with O=C1NCCc2[nH]c(-c3ccncc3OCC(F)F)c(Nc3ccc(F)cc3)c21
6.95

Identify measured pIC50 associated with O=C1NCCc2[nH]c(-c3ccncc3OCC3CC3)c(Nc3ccc(F)c(F)c3)c21
7.22

Identify measured pIC50 associated with CN1CCc2[nH]c(-c3ccncc3OCCC(C)(C)C)c(Nc3ccccc3)c2C1=O
7.07

Identify measured pIC50 associated with CN1CCc2[nH]c(-c3ccnc4[nH]cnc34)c(Nc3ccccc3)c2C1=O
7.46

Identify measured pIC50 associated with CN1CCc2[nH]c(-c3ccncc3OCC(F)(F)F)c(Nc3ccccc3)c2C1=O
7.07

* * *

TARGET_ENTITY: catalytic domain of human Bub1 (amino acids 704-1085) (Homo sapiens (Human), UniProt O43683)
Sequence (O43683 704-1085): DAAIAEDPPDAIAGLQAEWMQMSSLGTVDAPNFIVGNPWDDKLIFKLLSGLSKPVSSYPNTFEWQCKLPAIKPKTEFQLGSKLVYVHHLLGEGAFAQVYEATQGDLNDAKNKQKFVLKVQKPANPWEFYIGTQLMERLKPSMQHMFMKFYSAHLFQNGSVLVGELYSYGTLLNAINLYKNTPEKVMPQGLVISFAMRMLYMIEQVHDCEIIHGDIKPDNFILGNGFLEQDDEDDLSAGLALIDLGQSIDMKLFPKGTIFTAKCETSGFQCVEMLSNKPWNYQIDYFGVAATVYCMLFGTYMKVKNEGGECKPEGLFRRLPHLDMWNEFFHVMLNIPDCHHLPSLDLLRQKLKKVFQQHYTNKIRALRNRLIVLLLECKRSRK
ASSAY_EXPLANATION: Bub1 kinase assay (TR-FRET)
REPORTED_CONDITIONS: 10 μM ATP, 1 μM peptide substrate, recombinant catalytic domain of human Bub1, read-out: Bub1 kinase assay median IC50
ATTRIBUTE_MEASURED: pIC50
The quantity pIC50 is defined as the negative base-10 logarithm of the molar concentration.

Identify measured pIC50 associated with COCCn1c2c(c(Nc3ccccc3)c1-c1ccncc1)C(=O)NCC2
6.45

Identify measured pIC50 associated with COCCOc1cnccc1-c1[nH]c2c(c1Nc1cccc(F)c1)C(=O)NCC2
7.71

Identify measured pIC50 associated with CN1CCc2[nH]c(-c3ccnc(N)c3)c(Nc3ccccc3)c2C1=O
6.77

* * *

Record form. Attribute: pIC50. Fill in for each entry.
TARGET_ENTITY: catalytic domain of human Bub1 (amino acids 704-1085) (Homo sapiens (Human), UniProt O43683)
ASSAY_EXPLANATION: Bub1 kinase assay (TR-FRET)
REPORTED_CONDITIONS: 10 μM ATP, 1 μM peptide substrate, recombinant catalytic domain of human Bub1, read-out: Bub1 kinase assay median IC50
The quantity pIC50 is defined as the negative base-10 logarithm of the molar concentration.

Identify measured pIC50 associated with CCn1c2c(c(Nc3ccccc3)c1-c1ccncc1)C(=O)NC(C)(C)C2 [Example 4]
7.84

Identify measured pIC50 associated with O=C1NCCc2[nH]c(-c3ccncc3F)c(Nc3ccccc3)c21 [Example 18]
7.94

Identify measured pIC50 associated with COCCOc1cnccc1-c1[nH]c2c(c1Nc1ccccc1)C(=O)N(C)CC2 [Example 31]
8.00

Identify measured pIC50 associated with CCNC(=O)Nc1cc(-c2[nH]c3c(c2Nc2ccccc2)C(=O)NCC3)ccn1 [Example 19]
7.71

Identify measured pIC50 associated with CN1CCc2[nH]c(-c3ccncc3)c(Nc3ccccc3)c2C1=O [Example 20]
7.87

Identify measured pIC50 associated with CC1(C)Cc2[nH]c(-c3ccncc3)c(Nc3ccccc3)c2C(=O)N1 [Example 1]
7.94

Identify measured pIC50 associated with CN1CCc2[nH]c(-c3ccncc3OCCO)c(Nc3ccccc3)c2C1=O [Example 26]
7.32

Identify measured pIC50 associated with O=C1NCCc2[nH]c(-c3ccncc3OCC(F)F)c(Nc3ccc(F)c(F)c3)c21 [Example 43]
6.87

Identify measured pIC50 associated with O=C1NCCc2[nH]c(-c3ccncc3OCC(F)F)c(Nc3cccc(F)c3)c21 [Example 41]
7.43

* * *

TARGET_ENTITY: catalytic domain of human Bub1 (amino acids 704-1085) (Homo sapiens (Human))
ASSAY_EXPLANATION: Bub1 kinase assay (TR-FRET)
REPORTED_CONDITIONS: 10 μM ATP, 1 μM peptide substrate, recombinant catalytic domain of human Bub1, read-out: Bub1 kinase assay median IC50
ATTRIBUTE_MEASURED: IC50 (nM)
Return type: number; implicit unit nM.

Identify measured IC50 associated with CC(C)(C)OC(=O)N1CCc2[nH]c(-c3ccncc3)c(Nc3ccccc3)c2C1=O
10.9

Identify measured IC50 associated with CN1CCc2[nH]c(-c3ccncc3OCCC(F)(F)F)c(Nc3ccccc3)c2C1=O
51.8

Identify measured IC50 associated with CN1CCc2[nH]c(-c3ccncc3F)c(Nc3ccccc3)c2C1=O
8.7

Identify measured IC50 associated with CC(=O)Nc1cc(-c2[nH]c3c(c2Nc2ccccc2)C(=O)N(C)CC3)ccn1
23.2

Identify measured IC50 associated with CN1CCc2[nH]c(-c3ccncc3OCc3ccccc3)c(Nc3ccccc3)c2C1=O
41.6

Identify measured IC50 associated with CC(=O)Nc1cc(-c2[nH]c3c(c2Nc2ccccc2)C(=O)NCC3)ccn1
18.3

Identify measured IC50 associated with CCn1c2c(c(Nc3ccc(F)cc3)c1-c1ccncc1)C(=O)NCC2
64.5

Identify measured IC50 associated with CN1CCc2[nH]c(-c3ccnc(NC(=O)[C@H]4C[C@H]4F)c3)c(Nc3ccccc3)c2C1=O (relative stereo)
17.1

* * *

TARGET_ENTITY: catalytic domain of human Bub1 (amino acids 704-1085) (Homo sapiens (Human), UniProt O43683)
ASSAY_EXPLANATION: Bub1 kinase assay (TR-FRET)
REPORTED_CONDITIONS: 10 μM ATP, 1 μM peptide substrate, recombinant catalytic domain of human Bub1, read-out: Bub1 kinase assay median IC50
Record form. Attribute: pIC50. Fill in for each entry.
The quantity pIC50 is defined as the negative base-10 logarithm of the molar concentration.

Identify measured pIC50 associated with O=C1NCCc2[nH]c(-c3ccncc3)c(Nc3ccc(F)cc3)c21 [Example 7]
7.70

Identify measured pIC50 associated with CC(C)C(=O)Nc1cc(-c2[nH]c3c(c2Nc2ccccc2)C(=O)N(C(=O)C(C)C)CC3)ccn1 [Example 10]
6.50

Identify measured pIC50 associated with COCCOc1cnccc1-c1[nH]c2c(c1Nc1ccc(F)cc1)C(=O)NCC2 [Example 46]
7.48

Identify measured pIC50 associated with Cc1cc(-c2[nH]c3c(c2Nc2ccccc2)C(=O)NCC3)ccn1 [Example 12]
7.81

Identify measured pIC50 associated with CN1CCc2[nH]c(-c3ccncc3OC[C@H]3CCOC3)c(Nc3ccccc3)c2C1=O [Example 34]
7.65

Identify measured pIC50 associated with CN1CCc2[nH]c(-c3ccnc(NC(=O)[C@@H]4C[C@@H]4F)c3)c(Nc3ccccc3)c2C1=O [Example 40]
7.55

Identify measured pIC50 associated with CCCOc1cnccc1-c1[nH]c2c(c1Nc1ccccc1)C(=O)N(C)CC2 [Example 28]
7.29

Identify measured pIC50 associated with CN1CCc2[nH]c(-c3ccncc3OCC3CC3)c(Nc3ccccc3)c2C1=O [Example 27]
7.66
